herbicidal effect (index per standard of Table 21), Setaria viridis (L.) Beauv.: recorded values
system: Setaria viridis (L.) Beauv.; experiment: Herbicidal effect by upland foliage treatment; assay type: in vivo; set-up: scale not given here; conditions: active ingredient 1000 g/ha, examined at 14th day from treatment
quantity.kind: herbicidal effect (index per standard of Table 21), Setaria viridis (L.) Beauv.

| compound | reported.measurement |
| --- | --- |
| CCC(C)n1nc(C(F)(F)F)c(CS(=O)(=O)C2=NOC(C)(C)C2)c1Cl (stereo not drawn) [3-0081] | 4 |
| Cn1nc(C(F)(F)F)c(CS(=O)(=O)C2=NOC(C)(C)C2)c1Cl [3-0039] | 5 |
| COc1c(CS(=O)(=O)C2=NOC(C)(C)C2)c(C(F)(F)F)nn1C [3-0013] | 5 |
| CC1(C)CC(S(=O)(=O)Cc2c(Cl)nn(CC(F)F)c2C(F)(F)F)=NO1 [3-0115] | 4 |
| CC1(C)CC(S(=O)(=O)Cc2c(Cl)nn(C(F)F)c2C(F)(F)F)=NO1 [3-0011] | 4 |
| COc1c(CS(=O)(=O)C2=NOC(C)(C)C2)c(C)cc[n+]1[O-] [7-0009] | 4 |
| CON=C(C)c1c(C)sc(C)c1CS(=O)(=O)C1=NOC(C)(C)C1 [2-0001] | 4 |
| CCCn1nc(C(F)(F)F)c(CS(=O)(=O)C2=NOC(C)(C)C2)c1Cl [3-0077] | 4 |
| Cc1ccsc1CS(=O)(=O)C1=NOC(C)(C)C1 [1-0001] | 4 |
| C#CCn1nc(C(F)(F)F)c(CS(=O)(=O)C2=NOC(C)(C)C2)c1Cl [3-0106] | 4 |
| CC1(C)CC(S(=O)(=O)Cc2ccccn2)=NO1 [9-0001] | 4 |
| CC(C)Cn1nc(Cl)c(CS(=O)(=O)C2=NOC(C)(C)C2)c1C(F)(F)F [3-0084] | 4 |
| CC1(C)CC(S(=O)(=O)Cc2sccc2Cl)=NO1 [1-0004] | 4 |
| CCC(C)n1nc(Cl)c(CS(=O)(=O)C2=NOC(C)(C)C2)c1C(F)(F)F (stereo not drawn) [3-0082] | 4 |
| Cc1nsc(Cl)c1CS(=O)(=O)C1=NOC(C)(C)C1 [4-0002] | 4 |
| CC(C)n1nc(Cl)c(CS(=O)(=O)C2=NOC(C)(C)C2)c1C(F)(F)F [3-0076] | 4 |
| Cc1cc(CS(=O)(=O)C2=NOC(C)(C)C2)no1 [6-0004] | 4 |
| CCn1nc(C(F)(F)F)c(CS(=O)(=O)C2=NOC(C)(C)C2)c1Cl [3-0073] | 4 |
| Cn1ncc(C(F)(F)F)c1CS(=O)(=O)C1=NOC(C)(C)C1 [5-0003] | 4 |
| CC1(C)CC(S(=O)(=O)Cc2c(C(F)(F)F)cnn2-c2ccccc2)=NO1 [5-0007] | 5 |
| CC1(C)CC(S(=O)(=O)Cc2c(C(F)(F)F)nn(C(F)F)c2Cl)=NO1 [3-0010] | 4 |
| Cn1nc(C(F)(F)F)c(CS(=O)(=O)C2=NOC(C)(C)C2)c1OC1CCCC1 [3-0015] | 4 |
| CC1(C)CC(S(=O)(=O)Cc2csc(Cl)n2)=NO1 [9-0008] | 4 |
| CC1(C)CC(S(=O)(=O)Cc2c(C(F)(F)F)nn(CC3CC3)c2Cl)=NO1 [3-0092] | 4 |
| Cc1nn(C)c(Cl)c1CS(=O)(=O)C1=NOC(C)(C)C1 [3-0037] | 4 |
| CCc1nn(C)c(CS(=O)(=O)C2=NOC(C)(C)C2)c1Cl [5-0002] | 5 |
| Cn1nc(Cl)c(CS(=O)(=O)C2=NOC(C)(C)C2)c1Cl [3-0038] | 5 |
| Cc1cc[n+]([O-])c(Cl)c1CS(=O)(=O)C1=NOC(C)(C)C1 [7-0008] | 5 |
| C=CCn1nc(C(F)(F)F)c(CS(=O)(=O)C2=NOC(C)(C)C2)c1Cl [3-0104] | 4 |
| CC(C)Cn1nc(C(F)(F)F)c(CS(=O)(=O)C2=NOC(C)(C)C2)c1Cl [3-0083] | 4 |
| CCOCn1nc(C(F)(F)F)c(CS(=O)(=O)C2=NOC(C)(C)C2)c1Cl [3-0120] | 5 |
| COc1cscc1CS(=O)(=O)C1=NOC(C)(C)C1 [2-0004] | 4 |
| Cn1nc(C(F)(F)F)c(CS(=O)(=O)C2=NOC(C)(C)C2)c1OC1CCCCC1 [3-0049] | 4 |
| CC1(C)CC(SCc2c(C(F)(F)F)nn(C(F)F)c2Cl)=NO1 [3-0008] | 4 |
| CC1(C)CC(S(=O)(=O)Cc2ccsc2)=NO1 [2-0003] | 4 |
| CC(=O)c1c(C)sc(C)c1CS(=O)(=O)C1=NOC(C)(C)C1 [2-0008] | 5 |
| C=CCn1nc(Cl)c(CS(=O)(=O)C2=NOC(C)(C)C2)c1C(F)(F)F [3-0105] | 4 |
| CCCCn1nc(Cl)c(CS(=O)(=O)C2=NOC(C)(C)C2)c1C(F)(F)F [3-0086] | 4 |
| C#CCn1nc(Cl)c(CS(=O)(=O)C2=NOC(C)(C)C2)c1C(F)(F)F [3-0107] | 5 |
